Parameter IC50: see the listing below.
- studyTarget: GDP-bound KRAS protein (aa 1-169), containing both G12C and C118A amino acid substitutions (Homo sapiens (Human), UniProt P01116, C118A/G12C)
- Sequence (P01116 other isoform, or with tags, fused parts or gaps G12C/C118A): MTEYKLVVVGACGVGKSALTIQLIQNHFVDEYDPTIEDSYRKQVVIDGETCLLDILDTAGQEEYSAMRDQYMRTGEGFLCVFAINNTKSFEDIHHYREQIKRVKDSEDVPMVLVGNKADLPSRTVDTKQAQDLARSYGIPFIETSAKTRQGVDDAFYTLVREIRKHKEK
- experiment: Coupled Nucleotide Exchange Assay
- settings: 5 min compound pre-incubation; inhibition of SOS-mediated nucleotide exchange; AlphaScreen
Entry rule: numbers only, all in nM.

C=CC(=O)N1C[C@H](C)N(c2nc(=O)n(-c3c(C)ccnc3C(C)C)c3nc(-c4c(O)cccc4F)c(F)cc23)C[C@H]1C [Example 5]; 79
C=CC(=O)N1[C@H](C)CN(c2nc(=O)n(-c3c(C(C)C)ncnc3C(C)C)c3nc(-c4c(N)cccc4F)c(Cl)cc23)C[C@@H]1C [Example 21]; 92

Which IC50 reading was recorded for the compound C=CC(=O)N1[C@H](C)CN(c2nc(=O)n(-c3c(C)ccnc3C(C)C)c3nc(-c4c(O)cccc4F)c(F)cc23)C[C@@H]1C (atropisomer, axis not shown; (M)) [Example 17] ? 117

Source of measurements: patent US11306087B2
